Biological target: Histone acetyltransferase KAT5 (Homo sapiens) (UniProt Q92993)
Sequence (Q92993 whole entry, looked up): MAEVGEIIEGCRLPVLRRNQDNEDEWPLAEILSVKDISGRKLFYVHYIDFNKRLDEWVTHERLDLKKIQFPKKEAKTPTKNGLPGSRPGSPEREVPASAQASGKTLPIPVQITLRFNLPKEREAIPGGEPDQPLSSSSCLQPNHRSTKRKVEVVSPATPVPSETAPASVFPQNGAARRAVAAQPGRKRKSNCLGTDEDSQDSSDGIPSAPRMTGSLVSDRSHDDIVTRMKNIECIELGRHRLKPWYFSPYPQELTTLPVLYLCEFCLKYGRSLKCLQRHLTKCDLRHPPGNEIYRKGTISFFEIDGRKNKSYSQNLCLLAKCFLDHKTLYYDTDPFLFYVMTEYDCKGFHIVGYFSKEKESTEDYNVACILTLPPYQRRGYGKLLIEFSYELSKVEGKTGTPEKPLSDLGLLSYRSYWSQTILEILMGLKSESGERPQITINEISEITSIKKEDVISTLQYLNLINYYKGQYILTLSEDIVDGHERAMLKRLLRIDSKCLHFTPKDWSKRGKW
Assay: Inhibition of Tip60-mediated histone H4 acetylation in human HeLa nuclear extracts at 200 uM after 15 mins by ELISA
Value Kind: inhibition

Examples from the recorded data:
{"Compound": "C=CC/C=C\\C/C=C\\CCCCCCCc1cccc(O)c1C(=O)O", "Target Under Test": "Histone acetyltransferase KAT5 (Homo sapiens) (UniProt Q92993)", "Value Measured": "> 50%"}
{"Compound": "CCCCCOc1ccc(CCc2cccc(O)c2C(=O)O)cc1", "Target Under Test": "Histone acetyltransferase KAT5 (Homo sapiens) (UniProt Q92993)", "Value Measured": "> 50%"}
{"Compound": "CCCCCCCCCCc1cc(O)cc(O)c1C(=O)O", "Target Under Test": "Histone acetyltransferase KAT5 (Homo sapiens) (UniProt Q92993)", "Value Measured": "> 50%"}

Q: # inhibition lookup, item CCCCCCCCCCCCCCOc1ccc(CCc2cccc(O)c2C(=O)O)cc1
A: > 50%

Q: # inhibition lookup, item CCCCCCCCCCc1cccc(O)c1C(=O)O
A: > 50%

Q: # inhibition lookup, item CCCCCCCOc1ccc(CCc2cccc(O)c2C(=O)O)cc1C(C)=O
A: > 50%

Q: # inhibition lookup, item CCCCCCCCCCCCCCCc1cc(O)cc(O)c1C(=O)O
A: > 50%

Q: # inhibition lookup, item CCCCCOc1ccc(/C=C\c2cccc(O)c2C(=O)O)cc1
A: > 50%

Q: # inhibition lookup, item CCCCCCCCCCCCCC#Cc1ccccc1C(=O)OC
A: > 50%

Q: # inhibition lookup, item CCCCCCCc1ccc(CCc2cccc(O)c2C(=O)O)cc1
A: > 50%

Q: # inhibition lookup, item CCCCCCCCCCCCCCCc1ccccc1C(=O)O
A: > 50%

Q: # inhibition lookup, item CC(C)CCCC(C)CCOc1ccc(CCc2cccc(O)c2C(=O)O)cc1 (stereo not drawn)
A: > 50%

Q: # inhibition lookup, item CCCCCOc1ccc(CCc2cccc(O)c2C(=O)O)cc1C(C)=O
A: > 50%
